# experimentalSystem: FKBP12 (Homo sapiens)
# Sequence (P62942 whole entry): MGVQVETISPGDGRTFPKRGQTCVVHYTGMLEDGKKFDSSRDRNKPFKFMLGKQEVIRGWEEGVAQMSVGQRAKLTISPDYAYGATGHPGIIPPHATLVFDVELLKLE
# protocolSummary: competitive fluorescence polarization assay, binding to FKBP12
# assayConditions: Table 1, unit μM printed in the cell; read-out: Ki FKBP12
measurementType: Ki

Using FKBP12 (Homo sapiens) as the test system, report measured Ki of COc1ccc(CCC2OC(=O)C3CCCCN3C(=O)C(C3CCCCC3)c3cc(OC)c(OC)c(c3)OC/C=C/COc3cccc2c3)cc1OC (stereo not shown) [35-(E)] .
> 100 µM

* * *

# experimentalSystem: FKBP12.6 (Homo sapiens)
# Sequence (P68106 whole entry): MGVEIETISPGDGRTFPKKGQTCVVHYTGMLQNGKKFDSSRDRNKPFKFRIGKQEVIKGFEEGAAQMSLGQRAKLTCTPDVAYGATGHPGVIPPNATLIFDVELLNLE
# protocolSummary: competitive fluorescence polarization assay, binding to FKBP12.6
# assayConditions: Table 1, unit μM printed in the cell; read-out: Ki FKBP12.6
measurementType: Ki

Name the recorded Ki of the compound listed here: COc1ccc(CCC2OC(=O)C3CCCCN3C(=O)C(C3CCCCC3)c3cc(OC)c(OC)c(c3)OC/C=C/COc3cccc2c3)cc1OC (stereo not shown) [35-(E)]
> 100 µM

* * *

# experimentalSystem: UniProt P68106
# protocolSummary: competitive fluorescence polarization assay, binding to FKBP12.6
# assayConditions: Table 1, competitive Fluorescence Polarization Assay; read-out: Ki [nM] FKBP12.6
measurementType: Ki
Just the number plus its unit, please.

Recorded Ki, per entry:
compound	measurementType	measuredResult
COc1ccc(CCC2OC(=O)C3CCCCN3C(=O)C(C3CCCCC3)c3cc(OC)c(OC)c(c3)OCC(O)C(O)COc3cccc2c3)cc1OC (single isomer, unassigned) [Compound 64b]	Ki	17 nM
COc1ccc(CC[C@H]2OC(=O)[C@@H]3CCCCN3C(=O)[C@@H](C3CCCCC3)c3cc(OC)c(c(OC)c3)OC/C=C/COc3cccc2c3)cc1OC [31-(E)]	Ki	263 nM

Name the recorded Ki of the compound listed here: COc1ccc(CC[C@H]2OC(=O)[C@@H]3CCCCN3C(=O)[C@@H](C3CCCCC3)c3cc(OC)c(c(OC)c3)OCCCCCOc3cccc2c3)cc1OC [Compound 40]
198 nM

* * *

# experimentalSystem: FKBP51FK1 (Homo sapiens, UniProt Q13451)
# Sequence (Q13451 42-130 limits assumed): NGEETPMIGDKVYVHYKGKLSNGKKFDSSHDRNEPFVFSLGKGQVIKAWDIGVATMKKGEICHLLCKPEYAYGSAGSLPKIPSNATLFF
# protocolSummary: biochemical
# assayConditions: Ki FKBP51FK1, Table 1, unit μM printed in the cell
measurementType: Ki

Name the recorded Ki of the molecule listed here: COc1ccc(CCC2OC(=O)C3CCCCN3C(=O)C(C3CCCCC3)c3cc(OC)c(OC)c(c3)OC/C=C/COc3cccc2c3)cc1OC (stereo not shown) [35-(E)]
> 5 µM

* * *

# experimentalSystem: FKBP12 (Homo sapiens)
# protocolSummary: competitive fluorescence polarization assay, binding to FKBP12
# assayConditions: Table 1, competitive Fluorescence Polarization Assay; read-out: Ki [nM] FKBP12
Simple rule here: Ki less than 100 nM is 1.0, otherwise 0.0.

Illustrative cases are given below, each with its answer.
compound	className
COc1ccc(CCC2OC(=O)C3CCCCN3C(=O)C(C3CCCCC3)c3cc(OC)c(OC)c(c3)OCC(O)C(O)COc3cccc2c3)cc1OC (single isomer, unassigned) [Compound 64a]	1.0
COc1ccc(CC[C@H]2OC(=O)[C@@H]3CCCCN3C(=O)[C@@H](C3CCCCC3)c3cc(OC)c(c(OC)c3)OCCOC/C=C/COc3cccc2c3)cc1OC [33-(E)]	0.0
COc1ccc(CC[C@H]2OC(=O)[C@@H]3CCCCN3C(=O)[C@@H](C3CCCCC3)c3cc(OC)c(OC)c(c3)OCC/C=C\COc3cccc2c3)cc1OC [36-(Z)]	0.0
COc1ccc(CC[C@H]2OC(=O)[C@@H]3CCCCN3C(=O)[C@@H](C3CCCCC3)c3cc(OC)c(OC)c(c3)OCCC(=O)CCOc3cccc2c3)cc1OC [Compound 61a]	1.0

Next compound, please.
Input COc1ccc(CC[C@H]2OC(=O)[C@@H]3CCCCN3C(=O)[C@@H](C3CCCCC3)c3cc(OC)c(c(OC)c3)OCCOCCCCOc3cccc2c3)cc1OC [Compound 41] ; condition: Ki strictly below 100 nM. Does it hold?
0.0
